Entries below carry reported IC50 on Dihydrofolate reductase (Homo sapiens).
Sequence (P00374 whole entry): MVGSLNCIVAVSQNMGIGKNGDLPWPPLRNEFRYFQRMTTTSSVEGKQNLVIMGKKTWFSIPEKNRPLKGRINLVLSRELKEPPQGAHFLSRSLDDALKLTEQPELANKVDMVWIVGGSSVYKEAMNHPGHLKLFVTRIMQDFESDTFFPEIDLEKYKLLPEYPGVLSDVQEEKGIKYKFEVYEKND

Data request: Identify measured IC50 associated with `Nc1nc2[nH]c(CCCCc3ccc(C(=O)N[C@@H](CCC(=O)O)C(=O)O)cc3)cc2c(=O)[nH]1`
Data returned: > 20 µM

Data request: Identify measured IC50 associated with `Nc1nc(N)c2c(CCCCc3ccc(C(=O)N[C@@H](CCC(=O)O)C(=O)O)cc3)coc2n1`
Data returned: 21 µM

Data request: Identify measured IC50 associated with `Nc1nc2[nH]c(CCCc3ccc(C(=O)N[C@@H](CCC(=O)O)C(=O)O)cc3)cc2c(=O)[nH]1`
Data returned: > 24 µM

====

pIC50: −log10 of the molar value.
Would you mind telling me the reported pIC50 of each entry?

Data request: Report pIC50 on Thymidylate synthase (Escherichia coli, UniProt C3SWJ7) for this entry: `Nc1nc2[nH]c(CCCc3ccc(C(=O)N[C@@H](CCC(=O)O)C(=O)O)cc3)cc2c(=O)[nH]1`
Sequence (C3SWJ7 whole entry): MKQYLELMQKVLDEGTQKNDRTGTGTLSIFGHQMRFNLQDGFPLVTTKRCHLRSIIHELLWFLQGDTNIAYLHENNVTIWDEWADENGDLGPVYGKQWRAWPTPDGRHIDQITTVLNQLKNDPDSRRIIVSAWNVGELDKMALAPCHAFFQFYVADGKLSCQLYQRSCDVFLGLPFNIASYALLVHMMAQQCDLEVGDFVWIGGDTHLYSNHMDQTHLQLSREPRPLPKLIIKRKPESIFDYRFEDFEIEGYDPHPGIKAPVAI
Data returned: < 3.74

Data request: Report pIC50 on Thymidylate synthase (Escherichia coli, UniProt C3SWJ7) for this entry: `Nc1nc(N)c2c(CCCCc3ccc(C(=O)N[C@@H](CCC(=O)O)C(=O)O)cc3)coc2n1`
Data returned: < 4.00

Data request: Report pIC50 on Thymidylate synthase (Escherichia coli, UniProt C3SWJ7) for this entry: `Nc1nc2[nH]c(CCCCc3ccc(C(=O)N[C@@H](CCC(=O)O)C(=O)O)cc3)cc2c(=O)[nH]1`
Data returned: < 3.77

====

Would you mind telling me the reported IC50 of each entry?

Data request: Report IC50 on Dihydrofolate reductase (Escherichia coli) for this entry: `Nc1nc2[nH]c(CCCc3ccc(C(=O)N[C@@H](CCC(=O)O)C(=O)O)cc3)cc2c(=O)[nH]1`
Sequence (P0ABQ4 whole entry): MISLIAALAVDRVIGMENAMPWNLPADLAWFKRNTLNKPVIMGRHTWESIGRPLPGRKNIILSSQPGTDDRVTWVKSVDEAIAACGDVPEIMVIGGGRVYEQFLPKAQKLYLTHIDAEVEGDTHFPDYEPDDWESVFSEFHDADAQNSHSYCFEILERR
Data returned: 22 µM

Data request: Report IC50 on Dihydrofolate reductase (Escherichia coli) for this entry: `Nc1nc(N)c2c(CCCCc3ccc(C(=O)N[C@@H](CCC(=O)O)C(=O)O)cc3)coc2n1`
Data returned: 21 µM

Data request: Report IC50 on Dihydrofolate reductase (Escherichia coli) for this entry: `Nc1nc2[nH]c(CCCCc3ccc(C(=O)N[C@@H](CCC(=O)O)C(=O)O)cc3)cc2c(=O)[nH]1`
Data returned: 100 µM

====

Would you mind telling me the reported Ratio of each entry?
assay: Ratio of Vmax, rel to Km (FPGS substrate activity) for recombinant human FPGS; type: ADME
Simply state the number, no unit and no words.

Data request: Identify measured Ratio associated with `Nc1nc(N)c2nc(CNc3ccc(C(=O)N[C@@H](CCC(=O)O)C(=O)O)cc3)cnc2n1`
Data returned: 0.19

Data request: Identify measured Ratio associated with `Nc1nc2[nH]c(CCCCc3ccc(C(=O)N[C@@H](CCC(=O)O)C(=O)O)cc3)cc2c(=O)[nH]1`
Data returned: 0.086

Data request: Identify measured Ratio associated with `Nc1nc2[nH]c(CCCc3ccc(C(=O)N[C@@H](CCC(=O)O)C(=O)O)cc3)cc2c(=O)[nH]1`
Data returned: 0.63

Data request: Identify measured Ratio associated with `Nc1nc(N)c2c(CCc3ccc(C(=O)N[C@@H](CCC(=O)O)C(=O)O)cc3)coc2n1`
Data returned: 0.07

Data request: Identify measured Ratio associated with `Nc1nc(N)c2c(CCCCc3ccc(C(=O)N[C@@H](CCC(=O)O)C(=O)O)cc3)coc2n1`
Data returned: 0.27

====

Would you mind telling me the reported pIC50 of each entry?
target: Dihydrofolate reductase (Lactobacillus casei, UniProt P00381)
Sequence (P00381 whole entry): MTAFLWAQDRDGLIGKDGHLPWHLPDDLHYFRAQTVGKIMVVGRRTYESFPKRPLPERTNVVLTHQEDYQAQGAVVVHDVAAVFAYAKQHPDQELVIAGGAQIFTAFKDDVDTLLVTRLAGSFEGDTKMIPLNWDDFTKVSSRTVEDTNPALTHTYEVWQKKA
pIC50: −log10 of the molar value.

Data request: Identify measured pIC50 associated with `Nc1nc2[nH]c(CCCCc3ccc(C(=O)N[C@@H](CCC(=O)O)C(=O)O)cc3)cc2c(=O)[nH]1`
Data returned: < 3.96

Data request: Identify measured pIC50 associated with `Nc1nc(N)c2c(CCCCc3ccc(C(=O)N[C@@H](CCC(=O)O)C(=O)O)cc3)coc2n1`
Data returned: 5.00

Data request: Identify measured pIC50 associated with `Nc1nc2[nH]c(CCCc3ccc(C(=O)N[C@@H](CCC(=O)O)C(=O)O)cc3)cc2c(=O)[nH]1`
Data returned: < 3.96

====

experiment: Vmax, rel (FPGS substrate activity) for recombinant human FPGS; type: ADME
measuredAttribute: Vmax rel
Simply state the number, no unit and no words.

Data request: Identify measured Vmax rel associated with `Nc1nc(N)c2c(CCc3ccc(C(=O)N[C@@H](CCC(=O)O)C(=O)O)cc3)coc2n1`
Data returned: 0.65

Data request: Identify measured Vmax rel associated with `Nc1nc2[nH]c(CCCCc3ccc(C(=O)N[C@@H](CCC(=O)O)C(=O)O)cc3)cc2c(=O)[nH]1`
Data returned: 0.54

Data request: Identify measured Vmax rel associated with `Nc1nc(N)c2c(CCCCc3ccc(C(=O)N[C@@H](CCC(=O)O)C(=O)O)cc3)coc2n1`
Data returned: 0.54

Data request: Identify measured Vmax rel associated with `Nc1nc(N)c2nc(CNc3ccc(C(=O)N[C@@H](CCC(=O)O)C(=O)O)cc3)cnc2n1`
Data returned: 1

Data request: Identify measured Vmax rel associated with `Nc1nc2[nH]c(CCCc3ccc(C(=O)N[C@@H](CCC(=O)O)C(=O)O)cc3)cc2c(=O)[nH]1`
Data returned: 0.57
